Attribution: patent US20220119522A1

Biological target: T1, human TREM2 on the cell surface (human, UniProt Q9NZC2 19-230)
T1 construct: also called surface TREM2; TREM2 expressed in HEK293-H6 cells
T1 sequence: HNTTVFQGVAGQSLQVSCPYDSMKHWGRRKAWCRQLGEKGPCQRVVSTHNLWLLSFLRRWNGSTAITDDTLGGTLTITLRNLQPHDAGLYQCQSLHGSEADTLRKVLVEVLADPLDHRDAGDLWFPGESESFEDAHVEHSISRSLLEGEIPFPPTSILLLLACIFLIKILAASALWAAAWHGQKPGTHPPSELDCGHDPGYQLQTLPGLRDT
Test: flow cytometry, dose-titrated binding to HEK293-H6 cells
Let's look at some binders and their measured EC50.
Write the number in nM without appending the unit.

# example entries with known answers
CL0020188-7 (antibody, V domains shown, Humanized variant of CL0020188 (hVH NA/graft, hVL TG/graft); also called Clone CL0020188-7) VH: EVQLVESGGGLVQPGGSLRLSCAASGFTFTDFYMSWVRQAPGKGLEWVSVIRNKANAYTAGYNPSVKGRFTISRDNSKNTLYLQMNSLRAEDTAVYYCARLTYGFDYWGQGTLVTVSS VL: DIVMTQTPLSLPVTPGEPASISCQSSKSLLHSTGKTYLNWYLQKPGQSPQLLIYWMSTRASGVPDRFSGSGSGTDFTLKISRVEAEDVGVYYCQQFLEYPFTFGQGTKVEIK    0.68
CL0020123-3 (antibody, V domains shown, Humanized variant of CL0020123 (hVH QGDS/2 m, Vk graft); also called Clone CL0020123-3) VH: QVQLVQSGAEVKKPGASVKVSCKASGFSIEDFYIHWVRQAPGQGLEWMGWIDPEQGDSKYAPKFQGRATITADTSTSTAYMELSSLRSEDTAVYYCHADHGNYGSTMDYWGQGTLVTVSS VL: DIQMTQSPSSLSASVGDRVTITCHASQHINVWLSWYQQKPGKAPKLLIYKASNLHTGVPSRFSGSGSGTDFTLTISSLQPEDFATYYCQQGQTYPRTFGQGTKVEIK    0.24

Give the reported value of EC50 for this record: CL0020123-1 (antibody, V domains shown, Humanized variant of CL0020123 (hVH NGDS/2 m, Vk graft); also called Clone CL0020123-1) VH: QVQLVQSGAEVKKPGASVKVSCKASGFSIEDFYIHWVRQAPGQGLEWMGWIDPENGDSKYAPKFQGRATITADTSTSTAYMELSSLRSEDTAVYYCHADHGNYGSTMDYWGQGTLVTVSS VL: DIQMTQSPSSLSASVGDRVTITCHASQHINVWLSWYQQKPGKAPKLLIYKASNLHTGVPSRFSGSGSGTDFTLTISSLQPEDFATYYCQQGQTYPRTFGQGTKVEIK
0.25
